All figures here come from paper PMC10208593.

test system: Huh7; assay: SRB cytotoxicity assay, Huh7; format: cell-based; settings: Homo sapiens, Huh-7, 72 h, read-out: IC50 (μM) ± S.D. Huh7
Recorded IC50 values for a group of compounds are listed next.
# output: bare number, implied unit µM

>>> print(df.to_string())
                                   compound  attribute_measured  value
0  O=C(NCc1ccncc1)c1cc(-c2c[nH]c3ccccc23)n[nH]1 [Compound 24]                IC50   30.4

Now for another entry.
Lab book: IC50 of CC(C)(C)c1ccc(NC(=O)c2cc(-c3c[nH]c4ccccc34)n[nH]2)cc1 [Compound 11] noted as 0.6

* * *

Recorded IC50 values for a group of molecules are listed next.
tested on: HepG2; assay: SRB cytotoxicity assay, HepG2; type: cell-based; conditions: Homo sapiens, HepG2, read-out: IC50 (μM) ± S.D. HepG2
Please answer in the form of a number followed by its unit of measurement.

Consider the reported IC50 for these molecules:
>>> df
                                   molecule   value
0  CNC(=O)c1cc(Oc2ccc(NC(=O)Nc3ccc(Cl)c(C(F)(F)F)c3)cc2)ccn1 [Sorafenib, sorafenib, reference compound]  4.4 µM
1  COc1ccc(OC)c(NC(=O)c2cc(-c3c[nH]c4ccccc34)n[nH]2)c1  1.3 µM

Lab book: IC50 of "COc1cc(NC(=O)c2cc(-c3c[nH]c4ccccc34)n[nH]2)cc(OC)c1OC" noted as 2.9 µM

Lab book: IC50 of "CC(C)(C)c1ccc(NC(=O)c2cc(-c3c[nH]c4ccccc34)n[nH]2)cc1" noted as 2.7 µM

* * *

system: Huh7; experiment: SRB cytotoxicity assay, Huh7; type: cell-based; conditions: Homo sapiens, Huh-7, 72 h, read-out: IC50 (μM) ± S.D. Huh7
attribute.measured: IC50 (µM)
# output: bare number, implied unit µM

Consider the reported IC50 for these molecules:
>>> df
                                   molecule  attribute_measured  value
0  O=C(NCc1ccccn1)c1cc(-c2c[nH]c3ccccc23)n[nH]1 [Compound 26]                IC50   35.4
1  COc1cc(NC(=O)c2cc(-c3c[nH]c4ccccc34)n[nH]2)cc(OC)c1 [Compound 16]                IC50    4.5

Now for another entry.
Lab book: IC50 of O=C(c1cc(-c2c[nH]c3ccccc23)n[nH]1)N1CCN(c2ccc(C(F)(F)F)cc2)CC1 [Compound 28] noted as 16.2

* * *

Recorded IC50 values for a group of molecules are listed next.
test system: Huh7; test: SRB cytotoxicity assay, Huh7; type: cell-based; details: Homo sapiens, Huh-7, read-out: IC50 (μM) ± S.D. Huh7 (HCC cell lines)
# output: bare number, implied unit µM

Consider the reported IC50 for these molecules:
                                   molecule  result_unit  value
0  COc1cc(NC(=O)c2cc(-c3c[nH]c4ccccc34)n[nH]2)cc(OC)c1OC           µM      1
1  CNC(=O)c1cc(Oc2ccc(NC(=O)Nc3ccc(Cl)c(C(F)(F)F)c3)cc2)ccn1 [Sorafenib, sorafenib, reference compound]           µM    6.5
2  CC(C)(C)c1ccc(NC(=O)c2cc(-c3c[nH]c4ccccc34)n[nH]2)cc1           µM    0.6

Now for another entry.
Lab book: IC50 of "COc1ccc(OC)c(NC(=O)c2cc(-c3c[nH]c4ccccc34)n[nH]2)c1" noted as 0.6
